# TEST PROTOCOL: reduction of polyQ htt aggregates in cells – imaging, exon1htt(103Q)mCFP cells, high-content imaging, primary screen (AID 483);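 note: compound exposure lasted 3 days before fixation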
# CONDITION CONTEXT: exon1htt(103Q)mCFP cell line, aggregate imaging, at 2 µM; stronger effect = higher value
MEASUREMENT LABEL: inhibition of aggregation (%)
Note: unit % is implicit; provide only the numeric part.

Illustrative cases are given below, each with its answer.
compound=COc1ccc(C(=O)Nc2ccc(C)cn2)c(OC)c1 measurement_label="inhibition of aggregation" units_text=% measured_number=-14.1
compound="O=C(CN1C(=O)CC(c2ccco2)Sc2ccccc21)Nc1ccccc1F (centres undefined)" measurement_label="inhibition of aggregation" units_text=% measured_number=-3.5
compound=Cc1cc(-c2ccccc2)c(C#N)c(N)n1 measurement_label="inhibition of aggregation" units_text=% measured_number=-10.4

Would you kindly share the measured inhibition of aggregation for "Cc1cc2ncn(C(=O)c3c(-c4ccccc4)noc3C)c2cc1C" ?
-7.9

----------
# TEST PROTOCOL: inhibitors of TNFa-induced NFkB p65 translocation, primary screen, imaging, HUVEC, MLSMR starter and 10KST1 sets (AID 438);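 note: compound added about 3h40 before a 20 min TNFalpha stimulation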
# CONDITION CONTEXT: HUVEC TNFa-induced p65 nuclear translocation; measured here: nuclei count (cytotoxicity indicator), at 2.08 µM
Categorized via cell count: 0 = under 400, 1 = from 400 up to 600, 2 = 600 and over

Here's what some known entries look like.
compound="CCNCC(O)COCC(O)CNCC (centres undefined)" class_assignment=1
compound=COc1ccc(C(NC(=O)C(C)(C)C)NC(=O)C(C)(C)C)cc1 class_assignment=0
compound=COc1ccccc1-n1c(=O)[nH]c2c(C(N)=O)nc(CC(C)C)nc21 class_assignment=2
compound=O=c1oc2ccccc2cc1NCc1ccccc1O class_assignment=2
compound=O=C(CN1C(=O)CSC1=O)N1CCc2ccccc2C1 class_assignment=0

Which cell count category applies to "Cc1cc(Nc2ccc(N3CCC(C)CC3)cc2)n2ncnc2n1" here?
1

Try the compound "O=S(=O)(c1ccc(N2CCN(c3ccc(F)cc3)CC2)cc1)N1CCCC1"
0

Try the compound "CCCN(Cc1cc2ccc(C)cc2[nH]c1=O)C(=O)c1cccnc1"
2

Try the compound "CCN(CC)CCCNC(=O)c1cn(C)c2ccc(S(=O)(=O)N(C)C)cc2c1=O"
1

----------
# TARGET DESC: Alpha-2C adrenergic receptor (Homo sapiens) (UniProt P18825)
# Sequence (P18825 whole entry, looked up): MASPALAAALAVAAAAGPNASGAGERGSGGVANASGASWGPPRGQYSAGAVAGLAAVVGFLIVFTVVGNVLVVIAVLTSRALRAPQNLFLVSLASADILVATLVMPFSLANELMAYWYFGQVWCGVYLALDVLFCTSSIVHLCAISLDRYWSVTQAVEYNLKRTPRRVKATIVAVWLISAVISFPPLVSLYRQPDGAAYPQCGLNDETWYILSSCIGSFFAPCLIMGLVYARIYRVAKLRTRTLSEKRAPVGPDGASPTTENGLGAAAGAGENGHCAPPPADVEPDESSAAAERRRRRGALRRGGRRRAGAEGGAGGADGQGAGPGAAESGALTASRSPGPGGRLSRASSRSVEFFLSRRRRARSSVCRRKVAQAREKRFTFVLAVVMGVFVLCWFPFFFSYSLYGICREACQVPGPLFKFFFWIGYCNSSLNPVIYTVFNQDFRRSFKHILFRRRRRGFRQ
# TEST PROTOCOL: compounds altering alpha2C-coupled GIRK flux – cell-based, HEK293 alpha2C/GIRK1/2, thallium flux, primary screen (AID 624);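 note: slope of fluorescence ratio to pre-addition baseline per second over 15 to 24 s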
# CONDITION CONTEXT: thallium flux BTC fluorescence, at 10 µM, actives lie on both sides
Lab note - cut at 0.006 for slope: 1 if strictly below, 0 if not.

compound=CCOc1ccc(-c2cc(C(=O)N3CCN(c4ccccn4)CC3)c3ccccc3n2)cc1 class_assignment=0

Strictly below 0.006 in slope? CCC1(c2ccc(F)cc2)NC(=O)N(CC(=O)c2ccc[nH]2)C1=O (stereo not given)
1

Try the compound "Cc1cc2ncn(C(=O)c3c(-c4ccccc4)noc3C)c2cc1C"
1

----------
# TARGET DESC: Alpha-2C adrenergic receptor (Homo sapiens) (UniProt P18825)
# TEST PROTOCOL: compounds altering alpha2C-coupled GIRK flux – cell-based, HEK293 alpha2C/GIRK1/2, thallium flux, primary screen (AID 624);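 note: slope of fluorescence ratio to pre-addition baseline per second over 15 to 24 s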
# CONDITION CONTEXT: thallium flux BTC fluorescence, at 10 µM, actives lie on both sides
Lab note - cut at 0.006 for slope: class 1 if strictly below, class 0 if not.

Here's what some known entries look like.
compound=Cc1ccccc1-n1nnnc1SCC(=O)Nc1ccc(S(=O)(=O)N2CCCC2)cc1 class_assignment="class 1"
compound="COc1ccc(S(=O)(=O)N2CCCC(C(=O)N3CCCCCC3)C2)cc1 (stereo unspecified)" class_assignment="class 1"
compound=CCOC(=O)/C(C#N)=C(/C)c1ccc(OC)cc1 class_assignment="class 1"
compound=CCc1c(C(=O)N2CCOCC2)csc1C class_assignment="class 1"
compound=Cc1cc(C)c(NC(=O)Cn2cc3c(n2)CCCC3)c(C)c1 class_assignment="class 0"

Strictly below 0.006 in slope? "O=C(COC(=O)C1CCN(S(=O)(=O)c2cccs2)CC1)c1cc2ccccc2o1"
class 1

Try the compound COC(=O)c1ccc(NC(=O)C(C)N2C(=O)c3ccccc3C2=O)cc1 (stereo unspecified)
class 1

Try the compound "Cc1cccc2c1nc(-c1ccccc1)n1cnnc21"
class 1

Try the compound "CCOC(=O)c1ccc(N=c2sc(C(=O)OC)cc(=O)n2Cc2ccco2)cc1"
class 0

----------
Overview of reported inhibition across a group of compounds:
# TEST PROTOCOL: TLR3 IRF3 reporter activation blockers – cell-based, poly I:C stimulus, luciferase, 10K MLSCN set, primary screen (AID 602277)
# CONDITION CONTEXT: HEK293-TLR3 RL24 IRF3 luciferase reporter, at 10 µM, stronger effect = higher value
Note: unit % is implicit; provide only the numeric part.

compound="Cc1cc(NC(=O)COC(=O)C2COc3ccccc3O2)no1 (stereo not given)" measured_number=12.6
compound=CN(Cc1nc(-c2ccncc2)no1)S(=O)(=O)c1ccc(Cl)cc1 measured_number=-26.6
compound=Cc1ccccc1-c1nc(CS(=O)(=O)CC(=O)NCc2ccc3c(c2)OCO3)c(C)o1 measured_number=17

Would you kindly share the measured inhibition for "FC(F)Oc1ccc(-c2csc(Cc3nnc4n3CCCCC4)n2)cc1" ?
-11.8

Try the compound "CC(=O)Nc1ccc(N=Cc2ccc[nH]2)cc1"
-21

Try the compound "CCN(CC)S(=O)(=O)c1ccc(NC(=O)CN(c2cccc(F)c2)S(C)(=O)=O)cc1"
18.3

Try the compound "CCSc1nc2ccccc2n1CC(N)=O"
20.8

Try the compound "CCc1nc(N)c(C#N)c(-c2ccc(OC)c(OC)c2)c1C"
21.8

----------
Overview of reported inhibition across a group of molecules:
# TEST PROTOCOL: inhibitors of TNFa-induced NFkB p65 translocation, primary screen, imaging, HUVEC, MLSMR starter and 10KST1 sets (AID 438);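 note: compound added about 3h40 before a 20 min TNFalpha stimulation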;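 for inhibition: signal is the nuclear over cytoplasmic p65 intensity ratio per well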
# CONDITION CONTEXT: HUVEC TNFa-induced p65 nuclear translocation; at 2 µM, stronger effect = higher value, 0% TNFa-plus-vehicle, 100% no-TNFa wells
Note: unit % is implicit; provide only the numeric part.

Illustrative cases are given below, each with its answer.
molecule="C/C=C/COC(=O)c1[nH]c2c(c1C)C(=O)CC(c1ccco1)C2 (configuration not stated)" measured_number=13.8
molecule=O=C(Nc1nnc(COc2ccc(F)cc2)s1)c1cccs1 measured_number=7.2
molecule=COc1cccc(N2CCN(CC(=O)Nc3nnc(-c4ccccc4)s3)CC2)c1 measured_number=0.2
molecule=Cc1ccc(NC2=NC3(CCCCC3)N=C(N)N2)c(C)c1 measured_number=-4.7
molecule=COc1ccc(OCc2nc(C#N)c(N3CCN(c4ccc(OC)cc4)CC3)o2)cc1 measured_number=2.9

Would you kindly share the measured inhibition for "COc1ccc(C(=O)N2CCN(C(=O)c3ccco3)CC2)cc1OC" ?
-3.9

Try the molecule "Cc1ccc(S(=O)(=O)C2(C(=O)Nc3nccs3)CC2)cc1"
6.5

Try the molecule CC(NC(=O)Cc1cccs1)c1ccc2c(c1)OCO2 (configuration not stated)
5.1

Try the molecule "O=C1c2ccccc2C(=O)N1C/C=C/CN1C(=O)c2ccccc2C1=O"
7.4

Try the molecule "COc1c(C(=O)Nc2c(C)n(C)n(-c3ccccc3)c2=O)ccc2ccccc12"
-1.7

----------
# TEST PROTOCOL: inhibitors of TNFa-induced NFkB p65 translocation, primary screen, imaging, HUVEC, MLSMR starter and 10KST1 sets (AID 438);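 note: compound added about 3h40 before a 20 min TNFalpha stimulation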
# CONDITION CONTEXT: HUVEC TNFa-induced p65 nuclear translocation; measured here: nuclei count (cytotoxicity indicator), at 2.08 µM
Categorized via cell count: low range (below 500), mid range (500 to below 600), high range (600 or more)

Here's what some known entries look like.
molecule=COc1cccc(-c2cc(C(F)(F)F)nc(NCc3ccco3)n2)c1 class_assignment="low range"
molecule=CCOc1cc(C(=O)Nc2ccon2)cc(OCC)c1OCC class_assignment="high range"
molecule=COc1ccc(CNC(=O)c2nnn(Cc3ccc(OC)cc3)c2N)cc1 class_assignment="high range"
molecule="Cc1ccc(CN2C(=O)CCC2C(=O)NCCCN2CCC(C)CC2)cc1 (centres undefined)" class_assignment="low range"
molecule=Cc1cccc(NC(=O)c2cc(NC(=O)c3ccco3)ccc2N2CCCCC2)c1 class_assignment="high range"
molecule=CCOC(=O)CCc1c(C)nc2cc(-c3ccc(F)cc3)[nH]n2c1=O class_assignment="low range"

Which cell count category applies to O=C1c2ccccc2C(Nc2cccnc2)N1Cc1ccccc1Cl (centres undefined) here?
high range

Try the molecule "COc1cc2c(cc1OC)CN(C(=O)COc1ccc(C)c(C)c1)CC2"
high range

Try the molecule "O=C(CN(CCc1ccccc1)C(=O)CN1C(=O)COc2ccccc21)NCc1ccco1"
mid range

Try the molecule CC1CCN(c2c(NCc3ccc(C(=O)N4c5ccccc5CC4C)cc3)c(=O)c2=O)CC1 (centres undefined)
high range

Try the molecule "CCOc1ccc(-c2cn(S(=O)(=O)c3cccc4nsnc34)nc2N)cc1"
low range
